experiment: yeast display, Sf9 membrane polyspecificity reagent, FACS + sequencing; frameworks hold sequencing errors

polymer sequence | polyreactivity (PSR sort gate)
QVQLGESGGGLVQAGGSLRLSCAASGGIFIGNAMGWYRQAPGKERELVAAISFSGGSTYYADSVKGRFTISRDNAKNTVYLQMNSLKPEDTAVYYCARRIGHGSRPYWLETWRYPYDYWGQGTQVTVSS | low polyreactivity
QVQLVESGGGLVQAGGSLRLSCAASGSIFDYNTMGWYRQAPGKERELVAAISSGGSTYYADSVKGRFTISRDNAKNTVYLQMNSLKPEDTAVYYCAARRAGWWGFYYWGQGTQVTVSS | high polyreactivity
QVQLVESGGGLVQAGGSLRLSCAASGFIFSWYAMGWYRQAPGKERELVAAISASGTSTYYADSVKGRFTISRDNAKNTVYLQMNSLKPEDTAVYYCAAEFVTEYLYGFVYEYDSWGQGTQVTVSS | low polyreactivity
QVQLVESGGGLVQAGGSLRLSCATSGRTFRFNAMGWYRQAPGKEREFVAAITSGGGTYYADSVKGRFTISRDNAKNTLDLQMNSLKPEDTAVYYCAAPRQYYLMDYWGQGTQVTVSS | low polyreactivity
QVQLVESGGGLVQAGGSLRLSCAASGSTFYFYAMGWYREAPGKERELVAAISKRGTSTYYADSVKGRFTISRDNAKNTVYLEMNSLKPEDTAVYFCAADAPRGYNYWGQGTQVTVSS | high polyreactivity

====

assay: yeast display, Sf9 membrane polyspecificity reagent, FACS + sequencing; frameworks hold sequencing errors
attribute measured: polyreactivity (PSR sort gate)

polymer sequence | attribute measured | reported result
QVQLVESGGGLVQAGGSLRLSCAASGSIFVWNAMGWYRQAPGKERELVARIRYSSNTYYADSVKGRFTISRDNAKNTVYLQMNSLKPEDTAVYYCAAGSTRYAGWTYNYWGQGTQVTVSS | polyreactivity (PSR sort gate) | high polyreactivity
QVQLVESGGGLVQAGGSLRLSCAASGSIFFGNAMGWYRQAPGKERELVAAIDGTGASTYYADSVKGRFTISRDNAKNTVYLQMNSLKPEDTAVYYCNKALTSKDYPVRTVERDYWGQGTKVTVSS | polyreactivity (PSR sort gate) | low polyreactivity
QVQLVESGGGLDQAGGSLRLSCAASGSTFYGYAMGWYRPAPGKERELVAGISSGDSTNYADSVKGRFTISRDNAKNTVYLQMNSLKPEDTAVYYCARDYSRHKGDYWGQGTQVTVSS | polyreactivity (PSR sort gate) | low polyreactivity
QVQLVESGGGLVQAGGSLRLSCAASGFIFRTYAMGWYRQAPGKERELVAAISGTTGSTYYADSVKGRFTISRDNAKNTVYLQMNSLKPEDTAVYFCAADYYWYIRYEYWGQGSQVTVSS | polyreactivity (PSR sort gate) | low polyreactivity
QVQLVESGGGLVQAGGSLRLSCAASGRTFATNVMGWYRQAPGKERELVAAISRSGGRTYYADSVKGRFTISRDNAKNTVYLQMNSLKPEDTAVYYCAARRRRFYYQYYRYDYWGQGTQVTVSS | polyreactivity (PSR sort gate) | high polyreactivity
QVQLVESGGGLVQAGGSLRLSSAASGRTFRYYTMGWYRQAPGKEREFVAAISSTGGTYYADSVKGRFTISRDNAKNNVYLQMNSLKPEVTAVYYCAATFIQVVVNVELYDYDYWGQGTQVTVSS | polyreactivity (PSR sort gate) | low polyreactivity
QVQLEESGGGLVQAGGSLRLTCAASGLTSRNYAMGWYRHAPRKARELVAAISKSGSRTYYADSVKGRFTISRDNAKNTVYLQMNSLKPEDTAVYYCATDYLDGTSYDYWGQGTQVTVSS | polyreactivity (PSR sort gate) | high polyreactivity
QLQLVESGGGLVQARGSLRLSCAASGYIFGSYAMGWDRQAPGKERELVAANSKSGGSTYYADSVKGRFTISRDYAKNTVYLQMNSLKPEDTAVYYCAAAGIGGGGWGQGTQVTVSS | polyreactivity (PSR sort gate) | low polyreactivity
QVQLVESGGGLVQAGGSLRLSCAASGIISGDYAMGWYRQAPGKERELVARITSGDSTNYADSVKGRFTISRDNAKNTVYLQMNSLNPEDTAVYYCAADRVWAYWTYGYWGQGTQVTVSS | polyreactivity (PSR sort gate) | low polyreactivity
QVQLVESGGGLVQAGCSLRLSCAASGSIIIGNAMGWYRKSPGKERELVAVINGSDGTTYYADSVKGRFTNSRDNAKNTVYLQMNSLKPEDTAVYYCNADFIDPSVYDYNYWGQGTQVTVSS | polyreactivity (PSR sort gate) | low polyreactivity
QVQILESGGGLVQAEGSIRLSCDASGRTFRPYAMGWSRQAPGKDRELVAVISYSGVSTYYADSVKGRFTISRDTEQNNVYLLLNSQIPEDTAVYYCLIRFRKTHYDYWGQGSQVTVSS | polyreactivity (PSR sort gate) | high polyreactivity

====

test: yeast display, Sf9 membrane polyspecificity reagent, FACS + sequencing; frameworks hold sequencing errors
attribute measured: polyreactivity (PSR sort gate)

polymer sequence | reported result
QVQIVESGGGLVQAGVSLRLSCAPSGFIFSVYAMGWYRQAPGKEMELVAGITRNGGITYYADSVKWRFTISRDNAKNTVYLQMNSLKPEDSAVYYCAAQAPKRRPFYGYYWGQGTQVTVSS | high polyreactivity
QVQLVESGGGVVQAGGSLRLSCAASGRIFRYYAMGWYRQAPGKERELVAGITTGGGSTYYADSVKGRFTISRDNAKNTVYLQMNSLKPEDTAVYYCAARYYTTFYWGQGTQVTVSS | high polyreactivity
QVQLVESGGGLVQAGGSLRLSCAASGSIVRSYAMGWYRQAPGKERELVASITDGTITNYADSVKGRFTISRDNAKNTVYLQMISLKPDDTAVYYCAAGTLAHAYVVRPIEMDYWGQGTQVTVSS | low polyreactivity
QVQLVESGGGLVQAGGSLRLSCAASGFIFRAYAMGWYRQAPGKERELVAAISRSGSRTYYADSVKGRFTISRDHAKNTVYLQMNSLKPEDTAVYYCAADHGSLLYDYWGQGTQVTVSS | high polyreactivity
QVQLVESGGGLDQARGSLRLSCAASGRTFYSYAMGWYRQAPGKERELVAAISKRGTSTYYADSVKGRFTISRDNAKNTVYLQMNSLKPEDTAVYYCDAGAYIWDIYSYRWYDYWGQGTQVTVSS | high polyreactivity
QVQLVESGGGLVQAGGSLRLSCAASGFIFRLYAMGWYRQAPGKERELVAALSSGTSTYYADSVKGRFTISRDNAKNTVYLQMNSLKPEDSAVYYCAAVPRVNWSRYVYFWYDYWGQGTQVTVSS | high polyreactivity
QVQLQESGGGLVQAGGCLSCTASGTIFGQGDMGWYRQAPGKERELVATINDGASTYYADSVKGRFTISRDKAKNTVNLQKNSLKPDDTAVYYCAVFTDITTYFGYWGQGTQVTVSS | low polyreactivity
QVQLVETGGGLVKAGGSLRLSSAASGSIFVYYVMGWYRQAPGKERELVAAINSDGDGTYYADSVKGRFTISRDNAKNTVYLQMNSLKPEDTAVYYCAASAFTGVDTYGYGGQGTQVTVSS | low polyreactivity
QVQQLESGGGLVQAGGSLRLSSAASGTIFRISDMGSYRQAPGTEREFVAAITYGANTYYADSGKGRFTISRDNAKNTVYRQMNSLKPDDTAVYDCAVPPVKESILDYWGQGTQVTVSR | low polyreactivity
QDQHVESGGGLVQAGGSLRLSCAASGIIFTRNAMGWYRQAPGKERELVAVISWGGRTYYADSVKGRFTISRDNAKNTVYLQMNSLKPEDTAVYYCNARAPYPVGGRKGDYWGQGTQVTVSS | high polyreactivity
QVQLVESGGGLVQAGGRLRLSCAASGRTFTQYTMGWYRQAPGKERELVAAISSGGSTYYADSVKGRFTISRDNAKNTVFLQMNSLNPEDTAVYYCAARSYYAKSRYYYWGQGTQVTVSS | high polyreactivity

====

assay: yeast display, Sf9 membrane polyspecificity reagent, FACS + sequencing; frameworks hold sequencing errors
attribute measured: polyreactivity (PSR sort gate)

polymer sequence | reported result
QVQLVESGGGLVQAGGSLRLSCAASGSTFSWYAMGWYRQAPGKERELVASISWRGGSTYYADSVKGRFTISRDNAKNTVSLQMNSLKPEDTAVYYCAADYDWKLFHEPPAVYDYDYWGQGTQVTVSS | low polyreactivity
QVQLVESGGGLVQAGGSLRLSCAASGYTFESYTMGWYRQGPGKERDFVAVISSSDTSTSYADSVKGRFTISRDNAKNTVYLQINSLKAEDTAVYYCAAYSSPYYITYYWYNYDYWGQVTQVTVSS | low polyreactivity
QVQLVESGVRLVQAGGSLRLSCAASGSIFAKYTMGWYRPAPGKERELVAAITRSGTSTRYADSVKGRFTISRDNAKNTVYLQLNSLKPEDTAVYYCAASLYSWGQGTQVTVSS | high polyreactivity
QVQLVESGGGLVQAGGSLRLGCAASGSTLYSYAMGWYRQAPGKERELVASISSGASTYYADSVKGRFTISRDNAKNTVYLQMNSLKPEDTAVYYCNADAGSYHTGWVTPWGSDEYDYWGQGTQVTVSS | low polyreactivity
QVQLVESGGGLVQAGGSLRLSCAASGRTLQTYVMGWYRQAPGKERELVAAITRGGGSTYYADSVKGRFTISRDNGKNTVFLQMNSLKPVDTSVYYCAASALRFNSRFSHWYIYWGQGTQVTVSS | high polyreactivity
QVQLVESGGGLVQAGGSLRLSCAASGSIFYLYAMGWYRQAPGKERELVAAISSSGGRTYYADSVKGRFTISRDNAKNTVYLQMNSLKPEDTAVYYCAARYWAKYSYGYWGQGTQVTVSS | high polyreactivity
QVQLVESGRGLFQAGGSLRLSCAASGFTFSLYAMGWYRQPPGKERELVAVISYRGGSTYYAYSVKGRFTISRDNAKNTVYLQMNSLKPEVTAVYYCARVVLHFSRYWWPVDYWGQGTQVTVSS | high polyreactivity
QVQLVESGGGLVQAGGSLRLSCAASGSIFDQYTMGWYRQAPGKARELVAAIRFSGGSTSYADSVKGRFTISRDNAKNTVYLQMISLKPEDTAVYYCNVDAITGGDWEDFDYWGQGTQVTVSS | low polyreactivity
QVQLVESGGGLVQAGGSLRLSCAASGSTFQYYAMGWYRQAPGKEREFVAAIHWDGGRTYYADSVKGRFTISRDNAKNTVYLQMNSLKPEDTAVYYCAAYTRYKMDYWGQGTQVTVSS | high polyreactivity
QVQLVESGGGLVQAGGSLRLSCAASGRIFIWYTMGWYRQAPGNERELVASITGGGGSTYYADSVKGRFTISRDNAKNTVYFQMNSLKPEETAVYDCNAVYRRRYDYWGQGTQVTVSS | high polyreactivity
QVQLVDSGGGLVQAGGSLRLSCAASGITFWDNVMGWYRQATGKERELVATITYRGGSTYADSVKGRFTISRDNAKITVFLQMNSVKPEDTAVYYCNTGVTVDILSYDSWGQGTQVTVSS | low polyreactivity
